Target: T1, recombinant mature dimeric myostatin (human and mouse (mature sequences 100% …, UniProt O08689 268-376))
T1 construct: also called GDF-8; mature myostatin
T1 sequence: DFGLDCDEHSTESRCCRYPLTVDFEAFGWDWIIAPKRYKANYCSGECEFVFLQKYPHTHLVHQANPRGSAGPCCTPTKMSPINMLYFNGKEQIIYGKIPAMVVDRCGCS
Assay: myostatin competition ELISA, polyclonal Ab capture of myostatin, competitor 10B3
endpoint: rank among the five most potent, top (1) to bottom (5)
Show the value, then the unit it is measured in.

// known answers, use as guide
H2L2-C91S_V102N (antibody, V domains shown) VH: QVQLVQSGAEVKKPGASVKVSCKASGYSFTGYFMHWVRQAPGQGLEWMGNIYPYNGVSNYNQRFKARVTMTTDTSTSTAYMELRSLRSDDTAVYYCARRYYYGTGPADWYFDNWGQGTLVTVSS VL: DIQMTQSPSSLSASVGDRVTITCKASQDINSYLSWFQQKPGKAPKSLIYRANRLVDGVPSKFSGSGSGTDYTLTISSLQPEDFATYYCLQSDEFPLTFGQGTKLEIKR ... 2 rank
H2L2-C91S_P100B_F (antibody, V domains shown) VH: QVQLVQSGAEVKKPGASVKVSCKASGYSFTGYFMHWVRQAPGQGLEWMGNIYPYNGVSNYNQRFKARVTMTTDTSTSTAYMELRSLRSDDTAVYYCARRYYYGTGFADWYFDVWGQGTLVTVSS VL: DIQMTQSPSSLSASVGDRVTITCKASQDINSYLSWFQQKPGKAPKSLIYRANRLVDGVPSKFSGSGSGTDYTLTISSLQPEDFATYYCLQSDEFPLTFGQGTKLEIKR ... 1 rank
H2L2-C91S_V102S (antibody, V domains shown) VH: QVQLVQSGAEVKKPGASVKVSCKASGYSFTGYFMHWVRQAPGQGLEWMGNIYPYNGVSNYNQRFKARVTMTTDTSTSTAYMELRSLRSDDTAVYYCARRYYYGTGPADWYFDSWGQGTLVTVSS VL: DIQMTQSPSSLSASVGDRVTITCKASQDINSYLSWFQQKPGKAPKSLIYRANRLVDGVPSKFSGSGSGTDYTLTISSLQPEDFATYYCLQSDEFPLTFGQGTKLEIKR ... 3 rank

Challenge: Request the reported rank among the five most potent, top (1) to bottom (5) associated with H2L2-C91S_G99D (antibody, V domains shown) VH: QVQLVQSGAEVKKPGASVKVSCKASGYSFTGYFMHWVRQAPGQGLEWMGNIYPYNGVSNYNQRFKARVTMTTDTSTSTAYMELRSLRSDDTAVYYCARRYYYDTGPADWYFDVWGQGTLVTVSS VL: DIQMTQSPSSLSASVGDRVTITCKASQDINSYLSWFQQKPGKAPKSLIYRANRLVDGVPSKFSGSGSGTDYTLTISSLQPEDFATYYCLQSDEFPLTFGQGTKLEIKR
Response given: 5 rank
